Test system: SK-ES-1 (Ewing's Sarcoma);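 note: after 72 h of two-drug dosing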
experimentNotes: Bliss excess, mean over the matrix (fraction); higher = more synergy
Bliss excess listing for selected molecules.

molecule: CC(=O)c1c(C)c2cnc(Nc3ccc(N4CCNCC4)cn3)nc2n(C2CCCC2)c1=O [Palbociclib] + CN(CC[C@H](CSC1=CC=CC=C1)NC2=C(C=C(C=C2)S(=O)(=O)NC(=O)C3=CC=C(C=C3)N4CCC(CC4)[C@H](C5=CC=CC=C5C6=CC=C(C=C6)Cl)O)S(=O)(=O)C(F)(F)F)CCO [AZD4320] (first compound max 10 µM, 7x7, partner max 1 µM)
Bliss excess: 0.0334

molecule: NC1(C(=O)N[C@@H](CCO)c2ccc(Cl)cc2)CCN(c2ncnc3[nH]ccc23)CC1 [Capivasertib] + COc1nnc2ccc(N3CCC(c4ccc(OCCN5CCN(C)C(=O)[C@H]5C)cc4)CC3)nn12 [AZD5153] (first compound max 10 µM, 7x7, partner max 1 µM)
Bliss excess: 0.0815
